- Experimental protocol: in vivo
- Assay setup: Hanover Wistar, rat, iv, 12.5 mg/kg, Concentration of STI571 in brain, individual data
Measurement kind: concentration at 2 h (ng/g)
Numbers only, in ng/g.

## Input Give me measured concentration at 2 h, please, for this molecule: `Cc1ccc(NC(=O)c2ccc(CN3CCN(C)CC3)cc2)cc1Nc1nccc(-c2cccnc2)n1`
## Output 402

---

- Experimental protocol: in vivo
- Assay setup: Hanover Wistar, rat, iv, 12.5 mg/kg, Concentration of STI571 in brain, Mean
Measurement kind: concentration at 2 h (ng/g)
Answers are plain numbers, in ng/g.

## Input Give me measured concentration at 2 h, please, for this compound: Cc1ccc(NC(=O)c2ccc(CN3CCN(C)CC3)cc2)cc1Nc1nccc(-c2cccnc2)n1 [STI571]
## Output 333
